system name: Mitogen-activated protein kinase 9 (Homo sapiens)
Sequence (P45984 whole entry): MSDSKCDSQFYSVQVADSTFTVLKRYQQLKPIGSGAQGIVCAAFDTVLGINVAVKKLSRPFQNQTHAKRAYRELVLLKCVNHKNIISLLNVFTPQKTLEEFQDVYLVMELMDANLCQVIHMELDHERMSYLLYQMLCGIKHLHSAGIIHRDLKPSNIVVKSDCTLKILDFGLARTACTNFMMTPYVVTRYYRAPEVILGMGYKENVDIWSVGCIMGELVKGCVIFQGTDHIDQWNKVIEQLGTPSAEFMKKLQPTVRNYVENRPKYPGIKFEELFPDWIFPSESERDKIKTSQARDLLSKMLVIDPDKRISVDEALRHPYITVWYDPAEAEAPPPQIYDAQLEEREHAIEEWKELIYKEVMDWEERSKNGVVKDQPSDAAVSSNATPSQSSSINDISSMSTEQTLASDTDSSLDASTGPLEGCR
assay summary: Inhibition of recombinant JNK2 after 60 mins by TR-FRET assay
outcome measure: IC50 (nM)
Give bare numbers, in nM.

Cc1n[nH]c(-c2c(C)csc2NC(=O)Cc2cccc3ncccc23)n1 = 81
Cc1csc(NC(=O)Cc2cccc3ncccc23)c1-c1ncn[nH]1 = 125

Next up:
Form field: IC50 recorded for O=C(Cc1cccc2ncccc12)Nc1scc(Br)c1-c1ncn[nH]1 with Mitogen-activated protein kinase 9 (Homo sapiens) (enter value)
90

* * *

system name: Mitogen-activated protein kinase 8 (Homo sapiens)
Sequence (P45983 whole entry): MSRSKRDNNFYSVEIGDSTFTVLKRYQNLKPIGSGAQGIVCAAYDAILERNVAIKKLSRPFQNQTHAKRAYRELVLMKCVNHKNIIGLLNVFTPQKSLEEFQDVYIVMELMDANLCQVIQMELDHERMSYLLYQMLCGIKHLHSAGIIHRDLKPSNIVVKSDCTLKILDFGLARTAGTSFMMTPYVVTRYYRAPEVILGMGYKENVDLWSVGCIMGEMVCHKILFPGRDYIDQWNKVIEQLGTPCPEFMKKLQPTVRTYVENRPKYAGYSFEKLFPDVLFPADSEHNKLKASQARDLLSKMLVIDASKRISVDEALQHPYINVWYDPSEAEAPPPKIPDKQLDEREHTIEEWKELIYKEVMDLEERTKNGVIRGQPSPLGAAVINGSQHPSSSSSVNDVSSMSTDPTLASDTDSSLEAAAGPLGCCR
assay summary: Inhibition of recombinant JNK1 after 60 mins by TR-FRET assay
outcome measure: pIC50
One number for each entry, as −log10 of the molar value.

# count of solved cases: 8
Cc1n[nH]c(-c2c(C)csc2NC(=O)Cc2ccc(OCCCN3CCCCC3)cc2)n1 = 6.33
O=C(Cc1cccc2ncccc12)Nc1scc(Br)c1-c1ncn[nH]1 = 7.38
CCOC(=O)c1c(C(F)(F)F)csc1NC(=O)Cc1ccc(OC)cc1 = 4.72
COC(=O)c1c(C)csc1NC(=O)Cc1cccc2cc[nH]c12 = 6.16
COC(=O)c1c(C)csc1NC(=O)Cc1ccc(OCCCN2CCCC2)cc1 = 6.55
COC(=O)c1c(C)csc1NC(=O)Cc1cccc2ncccc12 = 7.26
COC(=O)c1c(C)csc1NC(=O)Cc1cccc2cnccc12 = 7.51
CCOC(=O)c1c(C#N)csc1NC(=O)Cc1ccc(OC)cc1 = 6.46

Need pIC50 for each of these molecules.
1. O=C(Cc1cccc2ncccc12)Nc1scc(Cl)c1-c1ncn[nH]1
2. O=C(CN1C(=O)CCc2ccccc21)Nc1scc(Cl)c1-c1ncn[nH]1

1: 7.82; 2: 8.40

Provide the reported pIC50 of each entry below, same order.
1. Cc1n[nH]c(-c2c(C)csc2NC(=O)CN2C(=O)CCc3ccccc32)n1
2. Cc1csc(NC(=O)CN2C(=O)CCc3ccccc32)c1-c1ncn[nH]1

7.82
7.49

# credit: ChEMBL document CHEMBL1681717
